tgt: JAK2 (Homo sapiens (Human), UniProt O60674)
Sequence (O60674 826-1132): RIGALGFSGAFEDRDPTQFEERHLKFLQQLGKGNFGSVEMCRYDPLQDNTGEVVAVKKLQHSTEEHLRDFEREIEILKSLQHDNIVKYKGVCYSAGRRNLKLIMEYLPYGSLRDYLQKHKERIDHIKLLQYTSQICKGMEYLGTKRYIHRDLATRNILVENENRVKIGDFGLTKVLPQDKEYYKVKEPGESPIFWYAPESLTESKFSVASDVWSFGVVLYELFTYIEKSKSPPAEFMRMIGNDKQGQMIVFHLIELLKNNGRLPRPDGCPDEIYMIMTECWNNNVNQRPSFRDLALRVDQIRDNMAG
measurementDescription: In vitro JAK kinase assay (TR-FRET), JAK2
Format: biochemical
conditionParameters: catalytic domain aa 826-1132, GST-fusion; ATP 0.2 μM; peptide 20 nM; 30 minutes at room temperature
pIC50: −log10 of the molar value.
endpointLabel: pIC50

Some molecules with known pIC50 results, for comparison:
COC[C@H](C)Oc1nc(-c2cnn3ccccc23)nc(N[C@@H]2CCCN(C(=O)CO)C2)c1F [Example 58]; 8.70
C[C@@H](CO)Oc1nc(-c2cnn3ccccc23)nc(N[C@@H]2CCCN(C(=O)CO)C2)c1F [Example 59]; 8.52
Cc1c(N[C@@H]2CCCN(C(=O)CO)C2)nc(-c2cnn3ccccc23)nc1N1CCOCC1 [Example 26]; 8.40
N#CCC(=O)N1CCC[C@@H](Oc2nc(-c3cnn4ccccc34)nc(NCCO)c2F)C1 [Example 70]; 8.52
N#Cc1cnc(N2CCC[C@@H](Nc3nc(-c4cnn5ccccc45)nc(OCCO)c3F)C2)nc1 [Example 57]; 8.70

[a] N#Cc1nc(-c2cnn3ccccc23)nc(N[C@@H]2CCCN(C(=O)CO)C2)c1F [Example 47]
[b] N#CCC(=O)N1CCC[C@@H](Nc2nc(-c3cnn4ccccc34)nc(-c3cncc(CO)c3)c2F)C1 [Example 89]
[c] C[C@H](CO)Oc1nc(-c2cnn3ccccc23)nc(N[C@@H]2CCCN(C(=O)CO)C2)c1F [Example 61]
[d] N#CCC(=O)N1CCC[C@@H](Nc2nc(-c3cnn4ccccc34)nc(-c3ccc(N)nc3)c2F)C1 [Example 18]
-- ask Your job: order these 4 records by pIC50, ascending. Write the labels, ordered according to the request.
-- reply c, a, b, d
(c: 8.00, a: 8.40, b: 9.00, d: 9.22)

[A] N#Cc1cnc(N2CCC[C@@H](Nc3cc(OCCO)nc(-c4cnn5ccccc45)n3)C2)cn1 [Example 104]
[B] Cc1cc(-c2nc(-c3cnn4ccccc34)nc(O[C@@H]3CCCN(C(=O)CC#N)C3)c2F)ccn1 [Example 72]
-- ask Which record would sort first by descending pIC50, A or B ? In your reply, give the label of the chosen option.
-- reply B

[A] CCOCCOc1nc(-c2cnn3ccccc23)nc(N[C@@H]2CCCN(C(=O)CC#N)C2)c1F [Example 16]
[B] CCOC(=O)c1nc(-c2cnn3ccccc23)nc(N[C@@H]2CCCN(C(=O)CO)C2)c1F [Example 46]
-- ask For the pair A and B , which entry has the numerically smaller recorded pIC50? In your reply, give the label of the chosen option.
-- reply B

----------
tgt: JAK3 (Homo sapiens (Human))
Sequence (P52333 795-1124): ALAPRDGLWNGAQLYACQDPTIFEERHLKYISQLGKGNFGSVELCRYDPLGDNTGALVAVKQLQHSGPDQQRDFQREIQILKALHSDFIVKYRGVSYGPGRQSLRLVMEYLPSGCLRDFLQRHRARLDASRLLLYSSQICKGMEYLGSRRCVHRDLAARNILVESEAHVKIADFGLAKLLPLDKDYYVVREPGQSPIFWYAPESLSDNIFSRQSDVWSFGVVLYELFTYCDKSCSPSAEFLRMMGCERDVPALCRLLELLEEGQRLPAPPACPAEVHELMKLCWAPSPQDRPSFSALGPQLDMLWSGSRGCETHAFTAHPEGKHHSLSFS
measurementDescription: In vitro JAK kinase assay (TR-FRET), JAK3
conditionParameters: catalytic domain aa 795-1124, GST-fusion; ATP 0.6 μM; peptide 140 nM; 30 minutes at room temperature
pIC50: −log10 of the molar value.
endpointLabel: pIC50

[A] N#CC[C@H]1CC[C@H](Nc2nc(-c3cnn4ccccc34)nc(N3CCC(N)CC3)c2F)CC1
[B] N#CC[C@H]1CC[C@H](Nc2nc(-c3cnn4ccccc34)nc(NCCO)c2F)CC1
-- ask For the pair A and B , which entry has the numerically smaller recorded pIC50? In your reply, give the label of the chosen option.
-- reply B
(B: 8.00, A: 8.40)

[1] NC(=O)c1nc(-c2cnn3ccccc23)nc(N[C@@H]2CCCN(C(=O)CO)C2)c1F
[2] N#CCC(=O)N1CCC[C@@H](Nc2nc(-c3cnn4ccccc34)nc(N3CCC(C(=O)O)CC3)c2F)C1
-- ask For the pair 1 and 2 , which entry has the numerically smaller recorded pIC50? In your reply, give the label of the chosen option.
-- reply 1

----------
tgt: JAK2 (Homo sapiens (Human), UniProt O60674)
measurementDescription: In vitro JAK kinase assay (TR-FRET), JAK2
conditionParameters: catalytic domain aa 826-1132, GST-fusion; ATP 0.2 μM; peptide 20 nM; 30 minutes at room temperature
Procedure: Compounds were screened for their ability to inhibit JAK1, JAK2 and JAK3 using the assays as indicated below. […] The enzymatic activity was assayed using as substrate a biotinylated peptide, poly (GT)-Biotin (CisBio). […] The degree of phosphorylation was detected by TR-FRET (time-resolved fluorescence energy transfer). […] Incubate for 3 h and read on Victor 2V spectrofluorometer (Perkin Elmer) set to read fluorescence resonance energy transfer.
pIC50: −log10 of the molar value.
endpointLabel: pIC50

Some compounds with known pIC50 results, for comparison:
O=C(CO)N1CCC[C@@H](Oc2nc(-c3cnn4ccccc34)nc(OCCO)c2F)C1; 8.70
N#CCC(=O)N1CCC[C@@H](Nc2nc(-c3cnn4ccccc34)nc(-c3ccnc(CO)c3)c2F)C1; 9.30
N#CC[C@H]1CC[C@H](Nc2nc(-c3cnn4ccccc34)nc(N3CCNCC3)c2F)CC1; 9.10
N#CCC(=O)N1CCC[C@@H](Nc2cc(-c3cncc(O)c3)nc(-c3cnn4ccccc34)n2)C1; 9.00
Cc1cc(-c2nc(-c3cnn4ccccc34)nc(N[C@@H]3CCCN(C(=O)CO)C3)c2F)ccn1; 9.70

[1] O=C(CO)N1CCC[C@@H](Nc2nc(-c3cnn4ccccc34)nc(-c3ccnc(CO)c3)c2F)C1
[2] Cc1cc(-c2nc(-c3cnn4ccccc34)nc(O[C@@H]3CCCN(C(=O)CO)C3)c2F)ccn1
-- ask Which record would sort first by descending pIC50, 1 or 2 ? In your reply, give the label of the chosen option.
-- reply 1

----------
tgt: JAK2 (Homo sapiens (Human), UniProt O60674)
measurementDescription: In vitro JAK kinase assay (TR-FRET), JAK2
conditionParameters: catalytic domain aa 826-1132, GST-fusion; ATP 0.2 μM; peptide 20 nM; 30 minutes at room temperature
pIC50: −log10 of the molar value.
endpointLabel: pIC50

Cc1cc(-c2nc(-c3cnn4ccccc34)nc(N(C)[C@@H]3CCCN(C(=O)CO)C3)c2F)ccn1 [Example 77]; 8.70
O=C(CO)N1CCC[C@@H](Nc2nc(-c3cnn4ccccc34)nc(-c3ccncc3)c2F)C1 [Example 80]; 9.00
N#CC[C@H]1CC[C@H](Nc2nc(-c3cnn4ccccc34)nc(OCCO)c2F)CC1 [Example 5]; 9.30
CCOc1nc(-c2cnn3ccccc23)nc(N[C@@H]2CCCN(C(=O)CO)C2)c1F [Example 45]; 9.00
Cc1cc(-c2cc(N[C@@H]3CCCN(C(=O)CO)C3)nc(-c3cnn4ccccc34)n2)cc(C)n1 [Example 101]; 9.00

[a] Cc1ccc(-c2cc(N[C@@H]3CCCN(C(=O)CC#N)C3)nc(-c3cnn4ccccc34)n2)cn1 [Example 100]
[b] O=C(CO)N1CCC[C@@H](Nc2nc(-c3cnn4ccccc34)nc(N3CCC(O)CC3)c2F)C1 [Example 22]
-- ask For the pair a and b , which entry has the numerically smaller recorded pIC50? In your reply, give the label of the chosen option.
-- reply a

[P] C[C@H](Nc1nc(-c2cnn3ccccc23)nc(OCCO)c1F)c1ncc(F)cn1 [Example 12]
[Q] O=C(CO)N1CCC[C@@H](Nc2cc(-c3cncc(O)c3)nc(-c3cnn4ccccc34)n2)C1 [Example 105]
-- ask Which record would sort first by descending pIC50, P or Q ? In your reply, give the label of the chosen option.
-- reply P
(P: 9.30, Q: 8.30)

[I] CCCCOc1nc(-c2cnn3ccccc23)nc(N[C@@H]2CCCN(C(=O)CC#N)C2)c1F [Example 15]
[II] O=C(CO)N1CCC[C@@H](Oc2nc(-c3cnn4ccccc34)nc(NCCO)c2F)C1 [Example 69]
[III] N#CC[C@H]1CC[C@H](Nc2nc(-c3cnn4ccccc34)nc(OC[C@H](O)CO)c2F)CC1 [Example 7]
-- ask Order field: pIC50 | Direction: descending (largest first) Write the labels, ordered according to the request.
-- reply III, I, II

[A] COc1nc(-c2cnn3ccccc23)nc(O[C@@H]2CCCN(C(=O)CO)C2)c1F [Example 63]
[B] N#CC[C@H]1CC[C@H](Nc2nc(-c3cnn4ccccc34)nc(N3CCC(O)CC3)c2F)CC1 [Example 1]
-- ask For the pair A and B , which entry has the numerically smaller recorded pIC50? In your reply, give the label of the chosen option.
-- reply A
(A: 8.52, B: 9.30)

[I] O=C(CO)N1CCC[C@@H](Oc2nc(-c3cnn4ccccc34)nc(N3CCC(O)CC3)c2F)C1 [Example 75]
[II] N#CCC(=O)N1CCC[C@@H](Nc2nc(-c3cnn4ccccc34)nc(-c3ccc(CO)nc3)c2F)C1 [Example 85]
-- ask For the pair I and II , which entry has the numerically smaller recorded pIC50? In your reply, give the label of the chosen option.
-- reply I

----------
tgt: JAK3 (Homo sapiens (Human))
measurementDescription: In vitro JAK kinase assay (TR-FRET), JAK3
conditionParameters: catalytic domain aa 795-1124, GST-fusion; ATP 0.6 μM; peptide 140 nM; 30 minutes at room temperature
Description: Compounds were screened for their ability to inhibit JAK1, JAK2 and JAK3 using the assays as indicated below. […] The enzymatic activity was assayed using as substrate a biotinylated peptide, poly (GT)-Biotin (CisBio). […] The degree of phosphorylation was detected by TR-FRET (time-resolved fluorescence energy transfer). […] Incubate for 3 h and read on Victor 2V spectrofluorometer (Perkin Elmer) set to read fluorescence resonance energy transfer.
endpointLabel: IC50 (nM)

N#Cc1cnc(N2CCC[C@@H](Nc3cc(OCCO)nc(-c4cnn5ccccc45)n3)C2)cn1; 1

[I] Cc1c(N[C@@H]2CCCN(C(=O)CO)C2)nc(-c2cnn3ccccc23)nc1N1CCOCC1
[II] CN1CCN(c2nc(-c3cnn4ccccc34)nc(O[C@@H]3CCCN(C(=O)CC#N)C3)c2F)CC1
[III] O=C(CO)N1CCC[C@@H](Nc2nc(-c3cnn4ccccc34)nc(-c3ccncc3)c2F)C1
-- ask Order field: IC50 | Direction: descending (largest first) Write the labels, ordered according to the request.
-- reply I, II, III
(I: 30 nM, II: 6 nM, III: 4 nM)
